Listed here are compounds together with their documented pEC50.
# Test system: Ser-396 residue of Tau protein in human neuroblastoma SH-SY5Y cells
# procedure-details: Cellular assay: phosphorylation at Ser-396 of Tau protein (ELISA)
# Assay type: cell-based
# condition-description: 18 h incubation at 37°C, 1% DMSO, normalized to untreated cells, read-out: pS*er396-Tau average EC50
Scale: pEC50 equals -log10([C]), with [C] in mol/L.

These recorded examples may help you get a feel for the data.
**Q:** Item O=C(Nc1cccc2ccccc12)N(Cc1ccccc1)C(=O)SSCc1ccccc1 [Compound 6] : provide pEC50
**A:** 5.17

**Q:** Item O=C(Nc1cccc2ccccc12)N(Cc1ccccc1)C(=O)SSCCc1ccccc1 [Compound 4] : provide pEC50
**A:** 5.18

Pending compound:
**Q:** Item CCCCCSSC(=O)N(Cc1ccccc1)C(=O)NCc1ccccc1 [Compound 10] : provide pEC50
**A:** 5.15

###

# experimental-system: human recombinant GSK3β (Homo sapiens, UniProt P49841)
# Construct: 6His (N)
# Sequence (P49841 whole entry): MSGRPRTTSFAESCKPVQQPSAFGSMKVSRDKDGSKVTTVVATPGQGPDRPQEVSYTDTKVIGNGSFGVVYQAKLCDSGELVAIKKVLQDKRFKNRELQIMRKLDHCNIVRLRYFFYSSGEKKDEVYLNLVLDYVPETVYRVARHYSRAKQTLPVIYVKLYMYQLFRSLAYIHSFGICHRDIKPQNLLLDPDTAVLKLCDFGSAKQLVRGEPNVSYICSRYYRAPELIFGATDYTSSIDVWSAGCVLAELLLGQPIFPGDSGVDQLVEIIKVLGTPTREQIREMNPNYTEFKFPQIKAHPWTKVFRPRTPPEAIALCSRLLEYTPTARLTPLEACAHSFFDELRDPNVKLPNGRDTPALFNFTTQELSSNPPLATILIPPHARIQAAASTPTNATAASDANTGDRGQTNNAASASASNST
# procedure-details: GSK-3β assay (Z'-LYTE FRET enzymatic activity)
# condition-description: 2 nM enzyme (N-terminal 6His-tagged, H350L mutation), 12.5 µM ATP, 2 µM Ser/Thr 9 peptide, 60 min at room temperature, 1% DMSO; read-out: GSK3β inhibition average EC50
Listed here are compounds together with their documented pEC50.
Scale: pEC50 equals -log10([C]), with [C] in mol/L.

These recorded examples may help you get a feel for the data.
**Q:** Under human recombinant GSK3β (Homo sapiens, UniProt P49841), report pEC50 for CCSSC(=O)N(C(=O)N(C)C)c1cccc(C(F)(F)F)c1
**A:** 6.47

**Q:** Under human recombinant GSK3β (Homo sapiens, UniProt P49841), report pEC50 for O=C(Nc1cccc2ccccc12)N(Cc1ccccc1)C(=O)SSCc1ccccc1
**A:** 6.64

**Q:** Under human recombinant GSK3β (Homo sapiens, UniProt P49841), report pEC50 for CCN(CC)C(=O)N(C(=O)SSCc1ccccc1)c1cc(F)cc(F)c1
**A:** 5.08

**Q:** Under human recombinant GSK3β (Homo sapiens, UniProt P49841), report pEC50 for O=C(Nc1ccc2c(c1)OCO2)N(Cc1ccccc1)C(=O)SSC1CCCC1
**A:** 7.09

**Q:** Under human recombinant GSK3β (Homo sapiens, UniProt P49841), report pEC50 for O=C(Nc1cccc2ccccc12)N(Cc1ccccc1)C(=O)SS
**A:** 5.78

New cases:
**Q:** Under human recombinant GSK3β (Homo sapiens, UniProt P49841), report pEC50 for O=C(Nc1cccc2ccccc12)N(Cc1ccccc1)C(=O)SSCCc1ccccc1
**A:** 7.24

**Q:** Under human recombinant GSK3β (Homo sapiens, UniProt P49841), report pEC50 for C=CCSSC(=O)N(Cc1ccccc1)C(=O)Nc1cccc2ccccc12
**A:** 6.15

**Q:** Under human recombinant GSK3β (Homo sapiens, UniProt P49841), report pEC50 for CCOC(=O)CNC(=O)N(CC(=O)OCC)C(=O)SSCCc1ccccc1
**A:** 7.01

**Q:** Under human recombinant GSK3β (Homo sapiens, UniProt P49841), report pEC50 for COC(=O)C(CSSC(=O)N(Cc1ccccc1)C(=O)Nc1cccc2ccccc12)NC(C)=O (stereo not drawn)
**A:** 6.98
